# METHOD_DESCRIPTION: protein stability index of a GFP-peptide fusion (GPS, HEK-293T) (PSI 1-6); higher = more stable;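 further: 24-mer peptide tiles fused after GFP, lentivirally expressed, FACS-sorted into six equal bins by GFP/DsRed ratio, decoded by Illumina sequencing, PSI is the read-weighted mean bin number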
# APPLIED_CONDITIONS: treatment: MLN4924 1 uM, 8 h; c terminus: a fixed tail appended
What protein stability index was measured for each of the following?
One number for each entry.

GHEEMVALLLGQGANINAQTEETQ [ANKRD17]; 4.96
FMLRYLYSQKESGHSNWLGDPEEP [ATL3]; 2.06
KDPAYFYGYVYFRQVRDKTLKRGY [DENND6A]; 1.96

For the 3 sequences below, give their protein stability index values.
1. VVAEAQTRVSQLGLQVEGLRRRLE [LRRC45]
2. GKVKLQQNPGKFDELDMSPGDPKW [TBC1D10A]
3. DAELATRAIPELTKLLNDEDQVVV [CTNNB1]

Return:
1: 3.82; 2: 4.83; 3: 4.8

Okay, here is my list. What is protein stability index for each of these?
1. MTMTTMPESLNSPVSGKAVFMEFG [DLX1]
2. EIENVKKQASNLETAIADAEQRGD [KRT71]
3. KYQANITETQRLGLAMALEPNTTF [FANCE]
4. LKQLLTETDVWFSKQRKDFEGMAF [GMCL1]

Return:
1. 2.57
2. 5.42
3. 3.4
4. 2.52

Values were extracted from the supplement of paper PMC10567573.
